Reference source: ChEMBL document CHEMBL1153176

The entries below come with measured inhibition values attached.
# Species on record: Bos taurus
# assay text: Inhibition of calf thymus topoisomerase 1-mediated relaxation of supercoiled pBR322 DNA at 20 uM after 30 mins by agarose gel electrophoresis
Answer with a number only, understood to be in %.

Below, 4 compounds whose answers are already recorded.
# smiles repr, units symbol, endpoint value
rows = [
    ("Cc1ccc(-c2cc(-c3ccsc3)nc(-c3ccsc3)c2)o1", "%", 0),
    ("c1cc(-c2cc(-c3ccsc3)nc(-c3ccsc3)c2)co1", "%", 0),
    ("Cc1ccsc1-c1cc(-c2ccco2)cc(-c2sccc2C)n1", "%", 88),
    ("c1coc(-c2cc(-c3ccsc3)nc(-c3ccsc3)c2)c1", "%", 0),
]

Suppose we examine the compound c1coc(-c2cc(-c3ccsc3)nc(-c3cccs3)c2)c1 ; what inhibition value has been reported?
5

Returns the measured inhibition for the input compound. Input: Cc1ccc(-c2cc(-c3ccsc3)nc(-c3cc(C)sc3C)c2)o1
0

Quick one: inhibition for c1csc(-c2cc(-c3ccoc3)cc(-c3ccsc3)n2)c1 ?
0

Tell me the measured inhibition of Cc1ccsc1-c1cc(-c2ccco2)cc(-c2cccs2)n1 , please.
12

Given Cc1ccc(-c2cc(-c3cccs3)nc(-c3cccs3)c2)o1 , state its recorded inhibition.
0

Please report the recorded inhibition for Cc1ccsc1-c1cc(-c2ccoc2)cc(-c2cccs2)n1 .
3

* * *

# Species on record: Bos taurus
# assay text: Inhibition of calf thymus topoisomerase 1-mediated relaxation of supercoiled pBR322 DNA at 100 uM after 30 mins by agarose gel electrophoresis
quantity name: inhibition (%)
Hi! Could you send only the number? It should be in %, unit omitted.

Use these answered entries as a reference point.
# smiles repr, units symbol, inhibition
data = [
    ("Clc1ccc(-c2cc(-c3ccsc3)nc(-c3ccsc3)c2)o1", "%", 14),
    ("Cc1ccc(-c2cc(-c3cccs3)nc(-c3cccs3)c2)o1", "%", 3),
    ("c1csc(-c2cc(-c3ccoc3)cc(-c3ccsc3)n2)c1", "%", 0),
    ("c1csc(-c2cc(-c3ccoc3)cc(-c3cccs3)n2)c1", "%", 0),
]

Recorded inhibition of Cc1ccsc1-c1cc(-c2ccoc2)cc(-c2sccc2C)n1 , please.
30

So what's the measured inhibition for this one? Cc1ccsc1-c1cc(-c2ccoc2)cc(-c2cccs2)n1
9

* * *

# Organism: Bos taurus
# assay text: Inhibition of calf thymus topoisomerase 1-mediated relaxation of supercoiled pBR322 DNA at 100 uM after 30 mins by agarose gel electrophoresis
// Not fulfilled strictly below 50% in inhibition; Fulfilled otherwise

As a guide, the following entries are already answered.
# smiles repr, category
data = [
    ("Cc1ccc(-c2cc(-c3cccs3)nc(-c3sccc3C)c2)o1", "Not fulfilled"),
    ("Clc1ccc(-c2cc(-c3cccs3)nc(-c3cccs3)c2)o1", "Not fulfilled"),
    ("Cc1ccc(-c2cc(-c3ccsc3)nc(-c3sccc3C)c2)o1", "Not fulfilled"),
    ("Cc1ccc(-c2cc(-c3ccsc3)nc(-c3cc(C)sc3C)c2)o1", "Not fulfilled"),
]

Please find the next molecule below.
Does inhibition meet or surpass 50% for CC[C@@]1(O)C(=O)OCc2c1cc1n(c2=O)Cc2cc3ccccc3nc2-1 ?
Fulfilled

* * *

# experimental target: DNA topoisomerase 2-alpha (Homo sapiens) (UniProt P11388)
# Sequence (P11388 whole entry): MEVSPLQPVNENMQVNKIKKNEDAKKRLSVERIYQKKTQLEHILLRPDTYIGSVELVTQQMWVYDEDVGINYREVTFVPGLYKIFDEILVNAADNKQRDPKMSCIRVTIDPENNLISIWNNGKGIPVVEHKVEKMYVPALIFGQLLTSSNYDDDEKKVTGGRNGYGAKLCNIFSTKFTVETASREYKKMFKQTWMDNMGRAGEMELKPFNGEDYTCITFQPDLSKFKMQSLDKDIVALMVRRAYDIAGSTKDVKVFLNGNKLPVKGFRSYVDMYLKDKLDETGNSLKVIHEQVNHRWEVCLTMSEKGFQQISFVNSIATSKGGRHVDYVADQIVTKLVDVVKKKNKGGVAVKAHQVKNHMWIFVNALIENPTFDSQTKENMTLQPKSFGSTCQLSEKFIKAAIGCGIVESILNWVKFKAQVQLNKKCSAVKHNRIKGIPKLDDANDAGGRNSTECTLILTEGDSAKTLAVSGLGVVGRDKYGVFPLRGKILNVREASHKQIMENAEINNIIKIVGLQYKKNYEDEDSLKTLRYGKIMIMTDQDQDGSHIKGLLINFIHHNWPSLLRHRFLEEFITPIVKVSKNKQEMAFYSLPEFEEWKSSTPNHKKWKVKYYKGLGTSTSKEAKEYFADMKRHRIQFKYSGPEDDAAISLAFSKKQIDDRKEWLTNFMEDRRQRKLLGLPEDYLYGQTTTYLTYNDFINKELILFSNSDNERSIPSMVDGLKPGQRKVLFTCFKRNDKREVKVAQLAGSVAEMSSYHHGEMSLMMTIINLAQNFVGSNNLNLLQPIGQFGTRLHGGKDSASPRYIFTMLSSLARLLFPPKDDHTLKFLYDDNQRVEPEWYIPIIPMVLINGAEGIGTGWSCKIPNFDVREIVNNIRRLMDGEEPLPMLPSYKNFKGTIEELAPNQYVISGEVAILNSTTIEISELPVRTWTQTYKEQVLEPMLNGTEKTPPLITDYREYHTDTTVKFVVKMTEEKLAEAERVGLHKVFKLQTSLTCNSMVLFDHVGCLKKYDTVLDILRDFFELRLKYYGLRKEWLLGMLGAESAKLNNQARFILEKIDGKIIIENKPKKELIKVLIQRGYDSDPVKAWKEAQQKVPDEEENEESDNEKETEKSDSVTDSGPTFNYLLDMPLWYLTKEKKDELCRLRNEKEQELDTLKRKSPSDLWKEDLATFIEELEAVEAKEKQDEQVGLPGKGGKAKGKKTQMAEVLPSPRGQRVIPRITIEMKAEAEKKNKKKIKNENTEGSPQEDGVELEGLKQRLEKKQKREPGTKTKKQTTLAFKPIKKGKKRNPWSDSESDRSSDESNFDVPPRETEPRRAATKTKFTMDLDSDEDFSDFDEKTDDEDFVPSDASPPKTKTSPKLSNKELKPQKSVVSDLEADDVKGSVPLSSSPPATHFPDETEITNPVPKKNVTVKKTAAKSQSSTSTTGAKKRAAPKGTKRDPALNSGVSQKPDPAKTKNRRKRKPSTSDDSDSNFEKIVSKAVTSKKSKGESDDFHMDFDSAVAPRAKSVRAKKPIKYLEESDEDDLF
# assay text: Inhibition of human topoisomerase 2 alpha-mediated relaxation of supercoiled pBR322 DNA at 100 uM after 30 mins by agarose gel electrophoresis
quantity name: inhibition

# compound, inhibition
measured = [
    ("c1csc(-c2cc(-c3ccoc3)cc(-c3cccs3)n2)c1", "70%"),
    ("Cc1ccc(-c2cc(-c3ccsc3)nc(-c3cc(C)sc3C)c2)o1", "7%"),
    ("Clc1ccc(-c2cc(-c3cccs3)nc(-c3cccs3)c2)o1", "35%"),
]

Query: inhibition; subject: Cc1ccc(-c2cc(-c3cccs3)nc(-c3sccc3C)c2)o1
25%

What inhibition value was documented for this compound, Cc1ccc(-c2cc(-c3ccsc3)nc(-c3cccs3)c2)o1 ?
2%

# get_value(readout='inhibition', item= Clc1ccc(-c2cc(-c3ccsc3)nc(-c3ccsc3)c2)o1 )
8%

Reported inhibition for Cc1ccc(-c2cc(-c3cccs3)nc(-c3cc(C)sc3C)c2)o1 : what is it?
0%

Consider the compound shown here: c1cc(-c2cc(-c3ccsc3)nc(-c3ccsc3)c2)co1 What is its recorded inhibition?
12%

Param item = Cc1ccc(-c2cc(-c3ccsc3)nc(-c3sccc3C)c2)o1 ; retrieve measured inhibition.
0%
